ENDPOINT_NAME: IC50 (nM)
The reply should be a number in nM, with the unit left off.

Problem: Please look at CC(C)C[C@H](CC[S+]([O-])c1ccc2ccccc2c1)C(=O)N[C@H](C=O)CC(C)C (stereo partly specified) and tell me its recorded IC50 on Cathepsin B (Homo sapiens, UniProt P07858).
Result: 60

Attribution: ChEMBL document CHEMBL1129824
